Below is a list of entries, each paired with its recorded log10 of EC50 value.
# tested-target: T1, SARS-COV-2 RBD (SARS-COV-2, UniProt P0DTC2 319-539)
# T1 construct: also called WT RBD
# protocol: ELISA, RBD coated
Could you please treat all values as log10 of EC50 in ng/mL?

C1022 (antibody, V domains shown, IgG; V domains only) VH: QVQLVQSGAEVKTPGASVKVSCQASGDTFTSQYLHWVRQAPGQGLEWMGIINPTAGSTTYAQKFQGRVTMTRDTSTSTVYMELRSLRSEDMAVYYCARGGFIPMVRGFIDHWGQGTLVTVSS VL: QSALTQPASVSGSPGQSITISCTGTSSDVGGYNYVSWYQQHPGKAPKLMIYDVSNRPSGVSTRFSGSKSGNTASLTISGLQAEDEADYYCSSPTSSNTHVFGTGTKVTVL | 0.22

Recorded log10 of EC50 of C849 (antibody, V domains shown, IgG; V domains only) VH: QVQLVQSGAEVKKPGASVKVSCRASGYTFTDHYIHWVRQAPGQGLEWMGWINPNSGDTNYPQKFQGRVTMARDTSISTAHMELRRLKSDDTAVYYCARTSSPHSSSTGDFDSWGQGTLVTVSS VL: SYELTQPPSVSVAPGKTARITCGGDDIGSKSVHWYQQKSGQAPVLVIHDDSDRPSGIPERFSGSNSGNTATLTISRVEAGDEADYYCQVWDFTGDHPGWVFGGGTKLTVL , please.
0.56
